Hey, just so you know, these numbers are from patent US20230365563A1.

Recorded pIC50 by entry
- system: KRAS_WT and SOS1 (Homo sapiens, UniProt P01116)
- Sequence (P01116 1-188 isoform P01116-2): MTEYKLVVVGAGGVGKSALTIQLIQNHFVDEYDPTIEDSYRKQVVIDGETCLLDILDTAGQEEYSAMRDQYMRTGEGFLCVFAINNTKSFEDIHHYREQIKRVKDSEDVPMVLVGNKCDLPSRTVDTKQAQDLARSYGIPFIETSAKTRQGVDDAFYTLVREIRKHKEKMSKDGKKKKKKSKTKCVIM
pIC50: −log10 of the molar value. Counter-ions that a name gives are not always drawn.
result-type: pIC50

[[record]]
compound = "CCc1c(F)ccc2cc(O)cc(-c3c(F)cc4c(N5CC6CCC(C5)N6)nc(OCCCN5C[C@@H](C)O[C@@H](C)C5)nc4c3F)c12 (single isomer, unassigned) [Compound 250a]"
test_result = 7.12

[[record]]
compound = "Oc1cc(-c2c(Cl)cc3c(N4CC5CCC(C4)N5)nc(OCCN4C5CCC4COC5)nc3c2F)c2ccccc2c1 (single isomer, unassigned) [Compound 124, dihydrochloride]"
test_result = 5.54

[[record]]
compound = "Oc1cc(-c2c(Cl)cc3c(N4CC5CCC(C4)N5)nc(OCCCN4CCC4)nc3c2F)c2ccccc2c1 (single isomer, unassigned) [Compound 59a]"
test_result = 5.68


###

- system: KRAS-G12D and SOS1 (Homo sapiens, UniProt P01116, G12D)
- Sequence (P01116 1-188 isoform P01116-2 G12D): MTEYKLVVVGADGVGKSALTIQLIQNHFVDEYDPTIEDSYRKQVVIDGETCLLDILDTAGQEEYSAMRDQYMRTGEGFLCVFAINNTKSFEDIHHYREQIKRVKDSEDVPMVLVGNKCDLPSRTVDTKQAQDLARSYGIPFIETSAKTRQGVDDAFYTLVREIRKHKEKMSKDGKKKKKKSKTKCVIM
- measurement-notes: Inhibition of KRAS-G12D/SOS1 binding (Cisbio binding kit, 665/615 ratio), Effect Embodiment A
- measurement-parameters: read-out: GTP-KRAS-G12D:SOS1 IC50
result-type: IC50 (nM)

[[record]]
molecule = "CN(C)C1CN(c2nc(N3CC4(CCNC4)C3)c3cc(Cl)c(-c4cc(O)cc5ccccc45)c(F)c3n2)C1 (single isomer, unassigned) [Compound 8a]"
result_type = "IC50"
unit_label = "nM"
test_result = 461

[[record]]
molecule = "CN(C)C1CN(c2nc(C3CNC3)c3cc(Cl)c(-c4cc(O)cc5ccccc45)c(F)c3n2)C1 (single isomer, unassigned) [Compound 21a, bistrifluoroacetate]"
result_type = "IC50"
unit_label = "nM"
test_result = 1280

[[record]]
molecule = "CN1CC(C)(COc2nc(N3CC4CCC(C3)N4)c3cc(Cl)c(-c4cc(O)cc5ccccc45)c(F)c3n2)C1 (single isomer, unassigned)"
result_type = "IC50"
unit_label = "nM"
test_result = 39.6


###

- system: KRAS-G12D and SOS1 (Homo sapiens, UniProt P01116, G12D)
- measurement-notes: Inhibition of KRAS-G12D/SOS1 binding (Cisbio binding kit, 665/615 ratio), Effect Embodiment A
- measurement-parameters: read-out: GTP-KRAS-G12D:SOS1 IC50
Where a name gives a salt, the structure may show the parent alone.
result-type: IC50 (nM)

[[record]]
molecule = "C#Cc1c(F)ccc2cccc(-c3c(F)cc4c(N5CC6CCC(C5)N6)nc(OCCCN5C6CCC5COC6)nc4c3F)c12 (single isomer, unassigned) [Compound 272b]"
system = "KRAS-G12D and SOS1 (Homo sapiens, UniProt P01116, G12D)"
test_result = 18

[[record]]
molecule = "CC(=O)NCCN(C)c1nc(N2CC(N(C)C)C2)nc2c(F)c(-c3cc(O)cc4ccccc34)c(Cl)cc12 (single isomer, unassigned) [Compound 84]"
system = "KRAS-G12D and SOS1 (Homo sapiens, UniProt P01116, G12D)"
test_result = 3050

[[record]]
molecule = "CN1CCC[C@H]1COc1nc(N2CC3CCC(C2)N3)c2cc(Cl)c(-c3cc(O)c(F)c4ccccc34)c(F)c2n1 (single isomer, unassigned) [Compound 89b, hydrochloride]"
system = "KRAS-G12D and SOS1 (Homo sapiens, UniProt P01116, G12D)"
test_result = 5340

[[record]]
molecule = "C[C@@H]1CCCN1CCCOc1nc(N2CC3CCC(C2)N3)c2cc(Cl)c(-c3cc(O)cc4ccccc34)c(F)c2n1 (single isomer, unassigned) [Compound 108a, dihydrochloride]"
system = "KRAS-G12D and SOS1 (Homo sapiens, UniProt P01116, G12D)"
test_result = 56.3

[[record]]
molecule = "CN(C)C12CC(COc3nc(N4CC5CCC(C4)N5)c4cc(Cl)c(-c5cc(O)cc6ccccc56)c(F)c4n3)(C1)C2 (single isomer, unassigned) [Compound 127, hydrochloride]"
system = "KRAS-G12D and SOS1 (Homo sapiens, UniProt P01116, G12D)"
test_result = 87.6

[[record]]
molecule = "CCc1c(F)ccc2cc(O)cc(-c3c(Cl)cc4c(N5CC6CCC(C5)N6)nc(OC[C@H](C)CN5C6CCC5COC6)nc4c3F)c12 (single isomer, unassigned) [Compound 233b]"
system = "KRAS-G12D and SOS1 (Homo sapiens, UniProt P01116, G12D)"
test_result = 9.1

[[record]]
molecule = "Oc1cc(-c2c(Cl)cc3c(N4CC5CCC(C4)N5)nc(OCC(CN4C5CCC4COC5)C4CC4)nc3c2F)c2ccccc2c1 (single isomer, unassigned) [Compound 209b]"
system = "KRAS-G12D and SOS1 (Homo sapiens, UniProt P01116, G12D)"
test_result = 90.9

[[record]]
molecule = "C[C@@H]1CN(CC2(COc3nc(N4CC5CCC(C4)N5)c4cc(Cl)c(-c5cc(O)cc6ccccc56)c(F)c4n3)CC2)C[C@H](C)O1 (single isomer, unassigned) [Compound 207]"
system = "KRAS-G12D and SOS1 (Homo sapiens, UniProt P01116, G12D)"
test_result = 11.6

[[record]]
molecule = "Oc1cc(-c2c(Cl)cc3c(N4CC5CCC(C4)N5)nc(OCCCN4CCOC5(CC5)C4)nc3c2F)c2ccccc2c1 (single isomer, unassigned) [Compound 240]"
system = "KRAS-G12D and SOS1 (Homo sapiens, UniProt P01116, G12D)"
test_result = 39.1

[[record]]
molecule = "CC(C)NCCCOc1nc(N2CC3CCC(C2)N3)c2cc(Cl)c(-c3cc(O)cc4ccccc34)c(F)c2n1 (single isomer, unassigned) [Compound 101, dihydrochloride]"
system = "KRAS-G12D and SOS1 (Homo sapiens, UniProt P01116, G12D)"
test_result = 31.7

[[record]]
molecule = "Oc1cc(-c2c(Cl)cc3c(N4CC5CCC(C4)N5)nc(OCCCN4CC5(COC5)C4)nc3c2F)c2ccccc2c1 (single isomer, unassigned) [Compound 245]"
system = "KRAS-G12D and SOS1 (Homo sapiens, UniProt P01116, G12D)"
test_result = 27.4

[[record]]
molecule = "CNCCN(C)c1nc(N2CC(N(C)C)C2)nc2c(F)c(-c3cc(O)cc4ccccc34)c(Cl)cc12 (single isomer, unassigned) [Compound 16b]"
system = "KRAS-G12D and SOS1 (Homo sapiens, UniProt P01116, G12D)"
test_result = 83400

